experiment: NCI Yeast Anticancer Drug Screen. Data for the wt1 strain (AID 149);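 also: 0% = growth of vehicle-treated wt1 cultures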; details: S. cerevisiae wt1 strain (SPY 50644) growth inhibition; at 100.0 µM; stronger effect = higher value
Compounds without any hit were thinned out: in the full panel of roughly 79,000, 15% have a hit.
experimentalReadout: growth inhibition (%)
Please respond with the number in % and leave the unit unwritten.

{"molecule": "O=C(O)c1ccccc1/C=N/N=C1c2ccccc2-c2ccccc21", "quantityUnit": "%", "growth inhibition": 7}
{"molecule": "O=C1NC(SSC2=NNC3(C(=O)N2)c2ccccc2-c2ccccc23)=NNC12c1ccccc1-c1ccccc12", "quantityUnit": "%", "growth inhibition": 5}

Query :: Need growth inhibition of `CC(C)=NOC(=O)Nc1ccc(Cl)cc1` , thanks.
Result :: 14

Query :: Need growth inhibition of `O=C(/C=C/c1cc(Cl)cc(Cl)c1O)c1cccc(O)c1` , thanks.
Result :: 97

Query :: Need growth inhibition of `CCOC(=O)c1ccc(NC(=O)O/N=C(/Cl)C(C)C)cc1` , thanks.
Result :: 97

Query :: Need growth inhibition of `Cn1c(-c2ccc(/C=N\N3CCN(/N=C/c4ccc(-c5c[n+]6ccccc6n5C)cc4)CC3)cc2)c[n+]2ccccc12` , thanks.
Result :: 92

Query :: Need growth inhibition of `CCCC/C=C/C(C)(C(=O)OCC)C(=O)OCC` , thanks.
Result :: 3

Query :: Need growth inhibition of `Nc1ncc(-c2ccc(Br)cc2)s1` , thanks.
Result :: 98

Query :: Need growth inhibition of CN(C)CCOC1(Cc2ccc(F)cc2)CCC(C(C)(C)C)CC1 (stereo unspecified) , thanks.
Result :: 95

Query :: Need growth inhibition of `CNCCCNc1c2ccccc2nc2cccc([N+](=O)[O-])c12` , thanks.
Result :: 97

Query :: Need growth inhibition of `O=[N+]([O-])c1cc(F)c(F)cc1Sc1cc(F)c(F)cc1[N+](=O)[O-]` , thanks.
Result :: 98

Source of measurements: PubChem BioAssay (NCI)
